Tested on: HeLa-CD4-LTR-β-gal cells and CHO-SEC cells
test-method-notes: Cell-fusion assay (syncitia formation), gp41 mediated fusion
Type: cell-based, HIV-1
condition-summary: read-out: EC50, inhibition of cell-cell-fusion
pEC50: −log10 of the molar value.
Listed here are compounds together with their documented pEC50.
quantity-name: pEC50

• CC[C@H](C)[C@@H](CC(=O)N[C@@H](CCC(=O)O)CC(=O)N[C@H](CC(=O)N[C@H](CC(=O)N[C@@H](CCCN)CC(=O)N[C@H](CC(=O)N[C@H](CC(=O)N[C@@H](CCC(=O)O)CC(=O)O)Cc1c[nH]c2ccccc12)C(C)C)Cc1c[nH]c2ccccc12)C(C)C)NC(=O)C[C@@H](NC(=O)C[C@@H](N)CCCN)C(C)C = 4.57
• CC[C@H](C)[C@@H](CC(=O)N[C@H](CC(=O)N[C@@H](CCC(=O)O)CC(=O)N[C@H](CC(=O)N[C@H](CC(=O)N[C@@H](CCCN)CC(=O)N[C@H](CC(=O)N[C@H](CC(=O)N[C@@H](CCC(=O)O)CC(=O)O)C(C)C)Cc1c[nH]c2ccccc12)C(C)C)Cc1c[nH]c2ccccc12)C(C)C)NC(=O)C[C@@H](N)CCCN = 4.82
• CC[C@H](C)[C@@H](CC(=O)N[C@H](CC(=O)N[C@@H](CCC(=O)O)CC(=O)O)C(C)C)NC(=O)C[C@H](CCCN)NC(=O)C[C@@H](NC(=O)C[C@H](Cc1c[nH]c2ccccc12)NC(=O)C[C@H](CCC(=O)O)NC(=O)C[C@@H](NC(=O)C[C@H](Cc1c[nH]c2ccccc12)NC(=O)C[C@@H](N)CCCN)C(C)C)C(C)C = 4.89
